Tested on: mHTT protein
assay-text: mHTT protein assay (2B7-MW1, Mesoscale Discovery)
Type: cell-based, human
reported-conditions: GM04724 (CAG 70/20) Huntington's disease patient lymphoblast cells, 48 hours, 2B7-MW1 MSD; read-out: HTT Potency - Protein EC50 mHTT (average)
pEC50: −log10 of the molar value.
Form field: pEC50 (one value per entry).

Take a look at these entries with their results.
compound	measured-target	pEC50
Oc1cc(-c2nnco2)c(F)cc1-c1ccc(O[C@@H]2C[C@H]3CC[C@H](N3)[C@@H]2F)nn1 (single isomer, unassigned) [142-ENT2]	mHTT protein	7.00 to 7.29
COc1cc(-c2ccc(-c3ccc(O[C@H]4C[C@]5(C)CC[C@@](C)(N5)[C@H]4F)nn3)c(O)c2)cnn1 (single isomer, unassigned) [157-ENT2]	mHTT protein	7.30 to 7.80
C[C@]12CCC[C@](C)(N1)[C@H](F)[C@H](Oc1ccc(-c3ccc(-c4cn[nH]c4)cc3O)nn1)C2 (single isomer, unassigned) [147-ENT2]	mHTT protein	7.82 to 11.00
Cn1cnc2cc(O)c(-c3ccc(O[C@@H]4C[C@@]5(C)CCC[C@](C)(N5)[C@@H]4F)nn3)cc2c1=O (single isomer, unassigned) [133-ENT2]	mHTT protein	7.82 to 11.00
Oc1cc(-c2cn[nH]c2)ccc1-c1ccc(O[C@H]2C[C@@H]3COC[C@@H](N3)[C@H]2F)nn1 (single isomer, unassigned) [123-ENT2]	mHTT protein	6.30 to 7.00
Cn1cnc(-c2ccc(-c3ccc(O[C@H]4C[C@]5(C)CCC[C@@](C)(N5)[C@H]4F)nn3)c(O)c2)cc1=O (single isomer, unassigned) [139-ENT2]	mHTT protein	7.82 to 11.00
Cn1cc(-c2ccc(-c3ccc(O[C@@H]4C[C@H]5CCC[C@H](N5)[C@@H]4F)nn3)c(O)c2)c(F)n1 (single isomer, unassigned) [109-ENT1]	mHTT protein	7.30 to 7.80
Cn1cc(-c2ccc(-c3ccc(O[C@@H]4C[C@H]5COC[C@H](N5)[C@@H]4F)nn3)c(O)c2)cn1 (single isomer, unassigned) [124-ENT1]	mHTT protein	5.00 to 6.30

Request: What does the data say about its pEC50? Entry: Oc1cc(-c2ccn3ccnc3c2)ccc1-c1ccc(O[C@@H]2C[C@H]3CCC[C@H](N3)[C@@H]2F)nn1 (single isomer, unassigned) [83-ENT1]
Response: 6.30 to 7.00

Request: Another compound to check: COc1cc(-c2ccc(-c3ccc(O[C@@H]4C[C@H]5CCC[C@H](N5)[C@@H]4F)nn3)c(O)c2)cnn1 (single isomer, unassigned) [76-ENT1]
Response: 7.30 to 7.80

Request: Also Oc1cc(-c2ccn3cnnc3c2)ccc1-c1ccc(O[C@@H]2C[C@H]3CCC[C@H](N3)[C@@H]2F)nn1 (single isomer, unassigned) [86-ENT1] , if possible.
Response: 6.30 to 7.00

Request: Try this compound too: Cn1ccc2cc(-c3ccc(O[C@H]4C[C@]5(C)CCC[C@@](C)(N5)[C@H]4F)nn3)c(O)cc2c1=O (single isomer, unassigned) [156-ENT2]
Response: 7.82 to 11.00

Request: Similarly, Oc1cc(-c2cn[nH]c2)ccc1-c1ccc(O[C@@H]2C[C@H]3CC(F)(F)[C@@H](C2)N3)nn1 (single isomer, unassigned) [46-ENT2] ?
Response: 6.30 to 7.00

Request: Then Oc1cc(-n2cccn2)ccc1-c1ccc(O[C@H]2C[C@@H]3CC[C@@H](N3)[C@H]2F)nn1 (single isomer, unassigned) [35-ENT2] ?
Response: 7.00 to 7.29

Request: Also Cn1cnc2cc(O)c(-c3ccc(O[C@H]4C[C@]5(C)CCC[C@@](C)(N5)[C@H]4F)nn3)cc2c1=O (single isomer, unassigned) [133-ENT1] ?
Response: 7.82 to 11.00

Request: Now this one: Cn1c(=O)oc2cc(-c3ccc(O[C@H]4C[C@@H]5CCC[C@@H](N5)[C@H]4F)nn3)c(O)cc21 (single isomer, unassigned) [74-ENT2]
Response: 5.00 to 6.30

* * *

Test system: MDR1
assay-text: MDCK-MDR1 permeability assay (BBB penetration potential)
Type: in vitro ADME
reported-conditions: dog, MDCK-MDR1, pH 7.4, MDCK-MDR1: Efflux
Reported efflux ratio at 120 min, 5 μM values for the following molecules.
Just the number, please.

Check out these entries, answers already filled in.
molecule	recorded-endpoint	observed-value
Oc1cc2cccnc2cc1-c1ccc(O[C@@H]2C[C@H]3CCC[C@H](N3)[C@@H]2F)nn1 (single isomer, unassigned)	efflux ratio at 120 min, 5 μM	6
Oc1cc(-c2cn[nH]c2)ccc1-c1ccc(O[C@H]2C[C@@H]3CC[C@@H](N3)[C@@H]2F)nn1 (single isomer, unassigned)	efflux ratio at 120 min, 5 μM	7
Oc1cc(-c2cn[nH]c2)ccc1-c1ccc(O[C@@H]2C[C@H]3CC[C@H](N3)[C@H]2F)nn1 (single isomer, unassigned)	efflux ratio at 120 min, 5 μM	9
Cc1nc(-c2ccc(-c3ccc(O[C@H]4C[C@@H]5CCC[C@@H](N5)[C@H]4F)nn3)c(O)c2)cs1 (single isomer, unassigned)	efflux ratio at 120 min, 5 μM	4
Oc1cc(-c2ccn3ccnc3c2)ccc1-c1ccc(O[C@H]2C[C@@H]3CCC[C@@H](N3)[C@H]2F)nn1 (single isomer, unassigned)	efflux ratio at 120 min, 5 μM	12
Oc1cc(-c2nncs2)ccc1-c1ccc(O[C@@H]2C[C@H]3CCC[C@H](N3)[C@@H]2F)nn1 (single isomer, unassigned)	efflux ratio at 120 min, 5 μM	8
Cn1cc(-c2ccc(-c3ccc(O[C@@H]4C[C@H]5CCC[C@H](N5)[C@@H]4F)nn3)c(O)c2)c(F)n1 (single isomer, unassigned)	efflux ratio at 120 min, 5 μM	3
C[C@]12CC[C@](C)(N1)[C@H](F)[C@H](Oc1ccc(-c3ccc(C#N)cc3O)nn1)C2 (single isomer, unassigned)	efflux ratio at 120 min, 5 μM	5
Cc1cncc(-c2ccc(-c3ccc(O[C@H]4C[C@@H]5CCC[C@@H](N5)[C@H]4F)nn3)c(O)c2)n1 (single isomer, unassigned)	efflux ratio at 120 min, 5 μM	6
Cn1cc(-c2ccc(-c3ccc(O[C@@H]4C[C@H]5CCC[C@H](N5)[C@@H]4F)nn3)c(O)c2F)cn1 (single isomer, unassigned)	efflux ratio at 120 min, 5 μM	10

Request: Lab note: need efflux ratio at 120 min, 5 μM with MDR1 for entry Cc1cncc(-c2ccc(-c3ccc(O[C@@H]4C[C@H]5CCC[C@H](N5)[C@@H]4F)nn3)c(O)c2)c1 (single isomer, unassigned) , please look it up.
Response: 6

Request: Entry to check: Cc1nnc(-c2ccc(-c3ccc(O[C@@H]4C[C@H]5CCC[C@H](N5)[C@@H]4F)nn3)c(O)c2)o1 (single isomer, unassigned)
Response: 7

* * *

System: MDR1-MDCK cell monolayers
assay-text: MDCK-MDR1 permeability assay (BBB penetration potential)
Format: in vitro ADME
reported-conditions: dog, MDCK-MDR1, 120 min, 5 μM, pH 7.4
Known MDCK-MDR1: % Recov A-B of a selection of compounds
Quick reminder: number only, in %, skip the unit.

Illustrative cases are given below, each with its answer.
compound	observed-value
Cc1cc(-c2ccc(-c3ccc(O[C@@H]4C[C@H]5CCC[C@H](N5)[C@@H]4F)nn3)c(O)c2)co1 (single isomer, unassigned) [98-ENT1]	9
Cc1ncc(-c2ccc(-c3ccc(O[C@@H]4C[C@H]5CCC[C@H](N5)[C@@H]4F)nn3)c(O)c2)s1 (single isomer, unassigned) [96-ENT1]	39

Request: I am curious: what MDCK-MDR1: % Recov A-B value has been reported for COc1cc(-c2ccc(-c3ccc(O[C@@H]4C[C@H]5CCC[C@H](N5)[C@@H]4F)nn3)c(O)c2)cnn1 (single isomer, unassigned) [76-ENT1] ?
Response: 64

* * *

Tested on: MDR1
assay-text: MDCK-MDR1 permeability assay (BBB penetration potential)
Format: in vitro ADME
reported-conditions: dog, MDCK-MDR1, pH 7.4, MDCK-MDR1: Papp A-B
recorded-endpoint: Papp A→B at 120 min, 5 μM (×10⁻⁶ cm/s)
Give your result in ×10⁻⁶ cm/s as a bare value.

molecule	Papp A→B at 120 min, 5 μM / ×10⁻⁶ cm/s
Cn1cnc(-c2ccc(-c3ccc(O[C@H]4C[C@@H]5CCC[C@@H](N5)[C@H]4F)nn3)c(O)c2)cc1=O (single isomer, unassigned)	1.88
Oc1cc(-n2ncc3ccccc32)ccc1-c1ccc(O[C@@H]2C[C@H]3CC[C@H](N3)[C@@H]2F)nn1 (single isomer, unassigned)	4.74
N#Cc1ccc(-c2ccc(O[C@H]3C[C@@H]4CCC[C@@H](N4)[C@H]3F)nn2)c(O)c1 (single isomer, unassigned)	7.44

Now turn to the next molecule.
Request: Quick check: Papp A→B at 120 min, 5 μM of O=c1cc(-c2ccc(-c3ccc(O[C@@H]4C[C@H]5CCC[C@H](N5)[C@@H]4F)nn3)c(O)c2)ccn1CF (single isomer, unassigned) ?
Response: 1.07
